Attribute: composite z-score
target: E3 ubiquitin-protein ligase XIAP (Homo sapiens) (UniProt P98170); assay: small molecules binding XIAP protein – biophysical, small-molecule microarray, fluorescence 635 nm, primary screen (AID 1181); settings: higher = more signal;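 note: score merges 667 nm emission and signal to noise over triplicate slides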
Sequence (P98170 whole entry, looked up): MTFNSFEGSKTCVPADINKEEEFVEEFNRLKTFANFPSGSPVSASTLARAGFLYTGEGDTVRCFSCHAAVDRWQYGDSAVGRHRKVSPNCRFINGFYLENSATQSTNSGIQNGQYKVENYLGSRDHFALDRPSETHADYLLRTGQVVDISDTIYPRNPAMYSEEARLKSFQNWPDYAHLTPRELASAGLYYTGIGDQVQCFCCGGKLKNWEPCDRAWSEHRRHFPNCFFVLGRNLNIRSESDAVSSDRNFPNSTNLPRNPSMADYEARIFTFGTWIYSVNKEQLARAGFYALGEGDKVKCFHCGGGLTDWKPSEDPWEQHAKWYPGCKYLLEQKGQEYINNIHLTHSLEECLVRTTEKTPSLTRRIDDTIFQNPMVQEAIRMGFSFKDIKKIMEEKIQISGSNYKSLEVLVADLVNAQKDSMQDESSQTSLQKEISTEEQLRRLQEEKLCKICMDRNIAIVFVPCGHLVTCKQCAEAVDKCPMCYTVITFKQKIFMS
test readout: composite z-score

>>> df
                                   compound       test_readout  quantitative_readout
0  O=C1NC(=O)C2C1C=CC(C(O)c1ccc(I)cc1)N2Nc1ccc(Cl)cc1Cl (stereo not drawn)  composite z-score                -0.108
1  COc1cc(CO)cc(I)c1O[C@H]1C=C(C(=O)NCCO)C[C@@H](NC[C@@H]2CCCO2)[C@@H]1O  composite z-score                 -0.13
2  CC(CO)N1C(=O)[C@@H]2C3C(=O)OCCC/C=C\[C@H]3OC23C=CCN(CCN2CCOCC2)C(=O)[C@@H]13 (stereo partly drawn)  composite z-score                  1.01
3  COc1ccc([Si](C)(C)[C@@H]2[C@@H](CCO)O[C@]3(C(=O)N(Cc4cccc(N5CCOC5=O)c4)c4ccccc43)[C@H]2C)cc1  composite z-score               -0.0599
4  OCC1C=C(/C=C/c2ccccc2)CN1Cc1ccccc1Br (stereo not drawn)  composite z-score                -0.122
5  COc1ccc(NN2C(C(O)c3ccc(N(C)C)cc3)C=CC3C(=O)N(C4CCCCC4)C(=O)C32)cc1 (stereo not drawn)  composite z-score                  0.17
6  C#CCOc1ccc(C[C@@H](C(=O)OC)N(CC#C)[C@@H](/C=C/C2CC2)[C@H](O)Cc2ccccc2)cc1  composite z-score                 0.157
7  COC(=O)[C@@]1(Cc2ccc(OC)cc2)[C@H]2c3cc(C(=O)N(C)C)n(Cc4ccc(C(F)(F)F)nc4)c3C[C@H]2CN1C(=O)c1ccccc1  composite z-score                 0.333

Values compiled from PubChem BioAssay.
